Target: 5-hydroxytryptamine receptor 2C (Homo sapiens)
Sequence (whole entry): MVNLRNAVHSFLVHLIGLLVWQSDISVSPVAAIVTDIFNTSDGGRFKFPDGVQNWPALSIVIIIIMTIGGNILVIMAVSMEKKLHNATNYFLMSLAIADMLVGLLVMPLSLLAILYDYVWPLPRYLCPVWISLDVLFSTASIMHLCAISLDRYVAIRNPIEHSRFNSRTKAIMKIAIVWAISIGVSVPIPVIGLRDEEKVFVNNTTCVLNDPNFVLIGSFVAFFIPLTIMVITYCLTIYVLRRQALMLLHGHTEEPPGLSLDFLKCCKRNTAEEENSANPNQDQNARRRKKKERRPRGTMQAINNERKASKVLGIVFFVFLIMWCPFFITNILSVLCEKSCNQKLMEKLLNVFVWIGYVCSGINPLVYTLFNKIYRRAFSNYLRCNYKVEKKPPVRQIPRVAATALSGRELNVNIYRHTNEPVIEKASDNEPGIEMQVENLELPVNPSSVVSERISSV
Test: Displacement of [3H]Mesulergine from human recombinant 5-HT2C receptor expressed in CHO-K1 cells at 10 uM after 15 mins
Format: cell-based
PROPERTY LABEL: inhibition (%)

A. CN(C)/C=N/N=C/c1cn(S(=O)(=O)c2ccc(F)cc2)c2cccc([N+](=O)[O-])c12
B. CN(C)/C=N/N=C/c1cn(S(=O)(=O)c2ccc3ccccc3c2)c2cccc([N+](=O)[O-])c12
Request: Smaller inhibition value? Options are A and B Response format: the label of the selected entry.
Response: A

a. COc1ccc(S(=O)(=O)n2cc(/C=N/N=C/N(C)C)c3c([N+](=O)[O-])cccc32)cc1
b. COc1ccc(Cl)cc1S(=O)(=O)n1cc(/C=N/N=C/N(C)C)c2c([N+](=O)[O-])cccc21
Request: In terms of reported inhibition, does a or b have the smaller number? Response format: the label of the selected entry.
Response: b
(b: 44.9%, a: 67.8%)

====

Molecular target: 5-hydroxytryptamine receptor 6 (Homo sapiens, UniProt P50406)
Sequence (P50406 whole entry): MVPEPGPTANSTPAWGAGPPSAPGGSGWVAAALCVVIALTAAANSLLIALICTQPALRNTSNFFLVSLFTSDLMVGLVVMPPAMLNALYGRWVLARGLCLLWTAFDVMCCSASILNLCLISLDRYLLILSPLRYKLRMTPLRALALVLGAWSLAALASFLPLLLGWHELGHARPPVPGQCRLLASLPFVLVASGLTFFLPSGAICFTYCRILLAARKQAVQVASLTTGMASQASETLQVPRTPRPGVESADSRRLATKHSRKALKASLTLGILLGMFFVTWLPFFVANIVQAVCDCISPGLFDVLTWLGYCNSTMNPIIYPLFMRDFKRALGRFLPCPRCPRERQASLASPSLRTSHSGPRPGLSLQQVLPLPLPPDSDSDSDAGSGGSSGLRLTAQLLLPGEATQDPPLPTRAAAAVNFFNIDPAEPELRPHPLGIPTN
Assay: Inhibition of human recombinant 5-HT6 receptor expressed in HEK293 cells assessed as inhibition of 5-HT-induced increase in […] pretreated at 10 uM for 10 mins by cAMP accumulation assay
Type: functional, cell-based
PROPERTY LABEL: inhibition (%)

- SMILES NOTATION: "COc1ccc(OC)c(S(=O)(=O)n2cc(/C=N/N=C/N(C)C)c3c([N+](=O)[O-])cccc32)c1"
  UNIT DESCRIPTOR: "%"
  inhibition: 78.2
- SMILES NOTATION: "CN(C)/C=N/N=C/c1cn(S(=O)(=O)c2cccc3ccccc23)c2cccc([N+](=O)[O-])c12"
  UNIT DESCRIPTOR: "%"
  inhibition: 73.9
- SMILES NOTATION: "Cc1ccc(S(=O)(=O)n2cc(/C=N/N=C/N(C)C)c3c([N+](=O)[O-])cccc32)cc1"
  UNIT DESCRIPTOR: "%"
  inhibition: 75.2
- SMILES NOTATION: "CN(C)/C=N/N=C/c1cn(S(=O)(=O)c2ccc(F)cc2)c2cccc([N+](=O)[O-])c12"
  UNIT DESCRIPTOR: "%"
  inhibition: 63.9
- SMILES NOTATION: "COc1ccc(Cl)cc1S(=O)(=O)n1cc(/C=N/N=C/N(C)C)c2c([N+](=O)[O-])cccc21"
  UNIT DESCRIPTOR: "%"
  inhibition: 87.7
- SMILES NOTATION: "CN(C)/C=N/N=C/c1cn(S(=O)(=O)c2ccccc2)c2cccc([N+](=O)[O-])c12"
  UNIT DESCRIPTOR: "%"
  inhibition: 78.1

I. COc1ccc(S(=O)(=O)n2cc(/C=N/N=C/N(C)C)c3c([N+](=O)[O-])cccc32)cc1
II. CCCCc1ccc(S(=O)(=O)n2cc(/C=N/N=C/N(C)C)c3c([N+](=O)[O-])cccc32)cc1
Request: Which gives the smaller inhibition number: I or II ? Mark your answer with the label of the selected entry.
Response: II

====

Target: 5-hydroxytryptamine receptor 2C (Homo sapiens) (UniProt P28335)
Assay: Displacement of [3H]Mesulergine from human recombinant 5-HT2C receptor expressed in CHO-K1 cells at 10 uM after 15 mins
Format: cell-based
PROPERTY LABEL: inhibition (%)

- SMILES NOTATION: "COc1ccc(OC)c(S(=O)(=O)n2cc(/C=N/N=C/N(C)C)c3c([N+](=O)[O-])cccc32)c1"
  PROPERTY LABEL: "inhibition"
  ENDPOINT VALUE: 48.1
- SMILES NOTATION: "CN(C)/C=N/N=C/c1cn(S(=O)(=O)c2ccccc2)c2cccc([N+](=O)[O-])c12"
  PROPERTY LABEL: "inhibition"
  ENDPOINT VALUE: 48.4
- SMILES NOTATION: "Cc1ccc(S(=O)(=O)n2cc(/C=N/N=C/N(C)C)c3c([N+](=O)[O-])cccc32)cc1"
  PROPERTY LABEL: "inhibition"
  ENDPOINT VALUE: 82.3
- SMILES NOTATION: "CN(C)/C=N/N=C/c1cn(S(=O)(=O)c2cccc3ccccc23)c2cccc([N+](=O)[O-])c12"
  PROPERTY LABEL: "inhibition"
  ENDPOINT VALUE: 64.2
- SMILES NOTATION: "CN(C)/C=N/N=C/c1cn(S(=O)(=O)c2ccc(I)cc2)c2cccc([N+](=O)[O-])c12"
  PROPERTY LABEL: "inhibition"
  ENDPOINT VALUE: 66.2
